Taken from the supplement of paper PMC4166925.

Listed here are sequences together with their documented PBM E-score of 8-mer.
Test system: SpTbr T-box DNA-binding domain (GST fusion);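 note: protein at 200 nM in PBS on universal double-stranded arrays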
Sequence: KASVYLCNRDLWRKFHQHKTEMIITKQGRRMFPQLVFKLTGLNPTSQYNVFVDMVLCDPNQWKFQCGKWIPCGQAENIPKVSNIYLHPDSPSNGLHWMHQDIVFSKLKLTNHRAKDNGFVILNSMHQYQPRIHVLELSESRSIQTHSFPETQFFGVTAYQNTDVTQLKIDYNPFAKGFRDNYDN
Test: PBM E-score of 8-mer (E-score (dimensionless, -0.5 to 0.5)); Tbr is Tbrain of the sea star Patiria miniata (Pm) or the sea urchin Strongylocentrotus purpuratus (Sp); higher = stronger binding preference
Details: the construct has about 5 more residues each side
Whole data set: some 33,000 sequences, median “E-score (dimensionless, -0.5 to 0.5)” near -0.046, cut for the highest 2% near 0.36. The entries come from a sample that favours the highest values as a whole.

{"columns": ["Residue sequence", "PBM E-score of 8-mer"],
 "data": [
  ["ATGATAAC", 0.092],
  ["CTCGCACA", 0.37],
  ["CCACGGGC", -0.227],
  ["AAACACCC", 0.172],
  ["AGTAAATA", -0.121],
  ["CTCGCGCA", 0.248],
  ["AAACACCT", 0.442],
  ["ACACACAT", 0.328],
  ["AGACACCG", 0.0814],
  ["ATCCCAGA", -0.0492],
  ["ACAAAGCC", -0.0854],
  ["CGAACAGA", 0.0582],
  ["GTGATAAA", 0.305],
  ["ATGGCACC", 0.357],
  ["CCCTTGCG", -0.0683],
  ["AACAACGT", 0.00981],
  ["ATTATAGG", -0.255],
  ["GTGATAAC", 0.395],
  ["AGAGCCAG", 0.0237],
  ["AAACACCG", 0.155],
  ["ACTGCTGC", -0.0667],
  ["CTCGCAGA", 0.0495],
  ["ACGCACCT", 0.366],
  ["CTCGCAAG", 0.204],
  ["ATCGCGCA", 0.151],
  ["AGTGAGAA", 0.422],
  ["AGTGAGAT", 0.287],
  ["AGTCTCTC", -0.105],
  ["CTCGCACC", 0.451],
  ["CCAAGTAA", -0.21],
  ["CCCGCACC", 0.311],
  ["CGAAAACG", 0.0298],
  ["CCTAGGCC", -0.0372],
  ["CTCGCGCC", 0.412],
  ["CGCGTTTA", 0.0979],
  ["GGTTGCGA", 0.266],
  ["AGTGAGAG", 0.3],
  ["ATCGCGCC", 0.402],
  ["CGAAGACC", -0.109],
  ["TAAAGCTA", -0.171],
  ["ACGCACCA", 0.0513],
  ["ATGATCAC", 0.186],
  ["ATATAGTC", -0.0444],
  ["AGTTGCTA", 0.239],
  ["ACACACCT", 0.447],
  ["ATCGCAAG", 0.177]
]}
